Experiment: Toxicity in bleomycin-induced C57BL/6J mouse lung fibrosis model assessed as improvement in mouse survival relative to control
Conditions: in vivo
quantity-name: Activity (%)
Record the value in %, omitting the unit from your answer.

Prompt: Identify Activity associated with the compound "CC1(C[S+]([O-])CC2(C)COC2)COC1"
Completion: 87.5

---

Experiment: Lipophilicity, log P of the compound
Format: physicochemical
Conditions: octanol/water
quantity-name: logP

Prompt: Provide logP value for the following compound: "CC1(C[S+]([O-])CC2(C)COC2)COC1"
Completion: -0.7
